# assayed system: GST-Ap-NF-kB RHD (Exaiptasia pallida (Aiptasia), UniProt A0A913YAJ5 2-422)
# Sequence: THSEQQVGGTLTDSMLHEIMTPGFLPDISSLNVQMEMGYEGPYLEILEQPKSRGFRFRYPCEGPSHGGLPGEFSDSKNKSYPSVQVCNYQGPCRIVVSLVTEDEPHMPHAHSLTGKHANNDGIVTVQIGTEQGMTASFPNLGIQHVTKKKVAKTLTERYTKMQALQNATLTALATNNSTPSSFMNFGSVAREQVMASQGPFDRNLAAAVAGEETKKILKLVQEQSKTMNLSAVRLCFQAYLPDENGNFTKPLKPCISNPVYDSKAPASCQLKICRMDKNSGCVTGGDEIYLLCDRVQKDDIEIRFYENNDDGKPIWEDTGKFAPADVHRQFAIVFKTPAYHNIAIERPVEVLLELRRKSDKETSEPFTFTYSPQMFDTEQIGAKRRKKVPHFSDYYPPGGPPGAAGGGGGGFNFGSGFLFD
# assay overview: protein-binding microarray (PBM); PBM: ~300 nM protein, 6 mM HEPES pH 7.8, 80 mM KCl, 0.5 mM EDTA, 0.5 mM EGTA, 6% glycerol, 35 ng/ul poly-dIdC, 1% milk, 1 h, room temperature; high values mean tight binding
# conditions used: dsDNA, one strand shown
Each record's class is read off its binding signal using these ranges: LOW = under 3 z-score, MEDIUM = from 3 z-score up to 5 z-score, HIGH = 5 z-score and over

Take a look at these entries with their results.
> print(dat)
                             residue.string  label.class
1  CCGATTAACATCATAGTGAGGGGTGATGTTAATCGGGTCTTGATTCGCTTGACGCTGCTG          LOW
2  CCGATTAACATCACCCGCCCCCCTGATGTTAATCGGGTCTTGATTCGCTTGACGCTGCTG       MEDIUM
3  CCGATTAACATCAGGGGATTGCATGATGTTAATCGGGTCTTGATTCGCTTGACGCTGCTG         HIGH
4  CCGATTAACATCAGGAATCCCTATGATGTTAATCGGGTCTTGATTCGCTTGACGCTGCTG          LOW
5  CCGATTAACATCAAAAAAACCCTTGATGTTAATCGGGTCTTGATTCGCTTGACGCTGCTG       MEDIUM
6  CCGATTAACATCAAATAATCCCCTGATGTTAATCGGGTCTTGATTCGCTTGACGCTGCTG         HIGH
7  CCGATTAACATCAGACTTCCCCATGATGTTAATCGGGTCTTGATTCGCTTGACGCTGCTG       MEDIUM
8  CCGATTAACATCAAGGGGAATAATGATGTTAATCGGGTCTTGATTCGCTTGACGCTGCTG         HIGH

Sort `CCGATTAACATCAAAAATGCCCCTGATGTTAATCGGGTCTTGATTCGCTTGACGCTGCTG` into one of the categories. MEDIUM

Exam item: assign `CCGATTAACATCAGGAATTACCCTGATGTTAATCGGGTCTTGATTCGCTTGACGCTGCTG` to the correct category. MEDIUM

Lab note: sort `CCGATTAACATCAGACTGGGAAATGATGTTAATCGGGTCTTGATTCGCTTGACGCTGCTG` into the matching binding signal band. LOW

Sort `CCGATTAACATCAATTTTTCCCGTGATGTTAATCGGGTCTTGATTCGCTTGACGCTGCTG` into one of the categories. MEDIUM

// bin(item) where item = `CCGATTAACATCACTTCCCCCCCTGATGTTAATCGGGTCTTGATTCGCTTGACGCTGCTG` HIGH

Could you place `CCGATTAACATCAAAAAACCACCTGATGTTAATCGGGTCTTGATTCGCTTGACGCTGCTG` in its proper category? Many thanks. MEDIUM

Each sequence maps to one class by binding signal. Which class for `CCGATTAACATCATGCCCGGGAATGATGTTAATCGGGTCTTGATTCGCTTGACGCTGCTG` ? LOW

The entry to classify is `CCGATTAACATCAACTTCCCCCCTGATGTTAATCGGGTCTTGATTCGCTTGACGCTGCTG` ; which class holds it? HIGH

Could you tell me which band `CCGATTAACATCACACCCCAACATGATGTTAATCGGGTCTTGATTCGCTTGACGCTGCTG` belongs to? LOW

Which class holds `CCGATTAACATCAAAACTCCCCCTGATGTTAATCGGGTCTTGATTCGCTTGACGCTGCTG` ? HIGH

* * *

# assayed system: GST-Ap-NF-kB RHD (Exaiptasia pallida (Aiptasia), UniProt A0A913YAJ5 2-422)
# Sequence: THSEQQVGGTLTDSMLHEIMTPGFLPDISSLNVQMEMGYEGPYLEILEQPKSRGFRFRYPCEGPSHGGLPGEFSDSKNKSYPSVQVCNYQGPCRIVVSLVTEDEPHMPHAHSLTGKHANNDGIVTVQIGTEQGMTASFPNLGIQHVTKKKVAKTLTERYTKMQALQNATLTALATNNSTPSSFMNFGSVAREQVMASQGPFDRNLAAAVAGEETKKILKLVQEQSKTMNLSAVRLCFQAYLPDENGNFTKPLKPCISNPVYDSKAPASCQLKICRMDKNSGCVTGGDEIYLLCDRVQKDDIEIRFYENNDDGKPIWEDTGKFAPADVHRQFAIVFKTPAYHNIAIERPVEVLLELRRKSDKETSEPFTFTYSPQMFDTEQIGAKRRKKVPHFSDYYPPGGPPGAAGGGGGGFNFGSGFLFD
# assay overview: protein-binding microarray (PBM); PBM: ~300 nM protein, 6 mM HEPES pH 7.8, 80 mM KCl, 0.5 mM EDTA, 0.5 mM EGTA, 6% glycerol, 35 ng/ul poly-dIdC, 1% milk, 1 h, room temperature; high values mean tight binding
# conditions used: dsDNA, one strand shown
quantity measured: binding signal

> print(dat)
                             residue.string  quantity.measured         value
1  CCGATTAACATCAGGAAACTCCCTGATGTTAATCGGGTCTTGATTCGCTTGACGCTGCTG     binding signal  5.65 z-score

Name the recorded binding signal of the sequence listed here: `CCGATTAACATCAGGGAATCACATGATGTTAATCGGGTCTTGATTCGCTTGACGCTGCTG` 1.95 z-score

Provide only the value of recorded binding signal for `CCGATTAACATCAGGATTTCCCCTGATGTTAATCGGGTCTTGATTCGCTTGACGCTGCTG` 10 z-score

Please give measured binding signal of the following entry: `CCGATTAACATCAGGGGATTAACTGATGTTAATCGGGTCTTGATTCGCTTGACGCTGCTG` 5.48 z-score

Answer with the recorded binding signal for the sequence listed here: `CCGATTAACATCAACTGGGAAAATGATGTTAATCGGGTCTTGATTCGCTTGACGCTGCTG` 1.66 z-score

Return value of binding signal for input `CCGATTAACATCAGGGACTTCCATGATGTTAATCGGGTCTTGATTCGCTTGACGCTGCTG` , no commentary. 5.02 z-score

For the sequence `CCGATTAACATCACAAATCCCCCTGATGTTAATCGGGTCTTGATTCGCTTGACGCTGCTG` , report binding signal. 8.39 z-score

Give reported binding signal value for `CCGATTAACATCAGGGGGAGTACTGATGTTAATCGGGTCTTGATTCGCTTGACGCTGCTG` 6.52 z-score

Return binding signal for the following sequence: `CCGATTAACATCAAAACAATCCCTGATGTTAATCGGGTCTTGATTCGCTTGACGCTGCTG` 2.49 z-score

* * *

# assayed system: GST-Aq-NF-kB (Amphimedon queenslandica, UniProt A9Y5G7 2-389)
# Sequence: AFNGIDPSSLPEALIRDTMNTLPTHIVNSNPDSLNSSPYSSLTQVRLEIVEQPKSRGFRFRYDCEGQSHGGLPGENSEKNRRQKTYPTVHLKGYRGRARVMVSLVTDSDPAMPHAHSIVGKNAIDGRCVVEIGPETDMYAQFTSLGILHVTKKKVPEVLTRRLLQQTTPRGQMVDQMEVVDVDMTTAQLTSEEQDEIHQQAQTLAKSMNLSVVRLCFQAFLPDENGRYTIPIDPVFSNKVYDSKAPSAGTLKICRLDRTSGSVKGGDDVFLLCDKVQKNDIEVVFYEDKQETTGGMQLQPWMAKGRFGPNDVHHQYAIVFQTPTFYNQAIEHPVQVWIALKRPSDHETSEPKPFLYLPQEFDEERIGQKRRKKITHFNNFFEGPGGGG
# assay overview: protein-binding microarray (PBM); PBM: ~300 nM protein, 6 mM HEPES pH 7.8, 80 mM KCl, 0.5 mM EDTA, 0.5 mM EGTA, 6% glycerol, 35 ng/ul poly-dIdC, 1% milk, 1 h, room temperature; Ap Aiptasia and Nv Nematostella (sea anemones) / Co Capsaspora / Aq Amphimedon (sponge) / Dm Drosophila / Hu human; RHD is the Rel homology domain; high values mean tight binding
# conditions used: dsDNA, one strand shown
quantity measured: binding signal (z-score)
The figure you give is taken to be in z-score; do not add the unit.

For the sequence `CCGATTAACATCAGGGGGTTTCATGATGTTAATCGGGTCTTGATTCGCTTGACGCTGCTG` , report binding signal. 6.59

Indicate the recorded binding signal value for this sequence: `CCGATTAACATCAAAAAATTTCCTGATGTTAATCGGGTCTTGATTCGCTTGACGCTGCTG` 2.22

Kindly indicate its recorded binding signal. Item: `CCGATTAACATCAGGGATATTTATGATGTTAATCGGGTCTTGATTCGCTTGACGCTGCTG` 3.73

Complete the entry with binding signal for `CCGATTAACATCAAGCATTCCCCTGATGTTAATCGGGTCTTGATTCGCTTGACGCTGCTG` 5.38

Provide measured binding signal value, entry: `CCGATTAACATCAGGGGATTTCATGATGTTAATCGGGTCTTGATTCGCTTGACGCTGCTG` 6.85

Provide one value: measured binding signal of `CCGATTAACATCAATTTACCCACTGATGTTAATCGGGTCTTGATTCGCTTGACGCTGCTG` 1.45

Give recorded binding signal. `CCGATTAACATCAGGAGACCCCCTGATGTTAATCGGGTCTTGATTCGCTTGACGCTGCTG` 6.55

Query binding signal for `CCGATTAACATCAGCAAAATTCCTGATGTTAATCGGGTCTTGATTCGCTTGACGCTGCTG` 1.04

Tell us which binding signal value is on record for `CCGATTAACATCAGAAATTTTCCTGATGTTAATCGGGTCTTGATTCGCTTGACGCTGCTG` 1.31
